Recorded pKi values for a group of molecules are listed next.
testedTarget: KAT2A (Homo sapiens (Human), UniProt Q92830)
Sequence (Q92830 whole entry): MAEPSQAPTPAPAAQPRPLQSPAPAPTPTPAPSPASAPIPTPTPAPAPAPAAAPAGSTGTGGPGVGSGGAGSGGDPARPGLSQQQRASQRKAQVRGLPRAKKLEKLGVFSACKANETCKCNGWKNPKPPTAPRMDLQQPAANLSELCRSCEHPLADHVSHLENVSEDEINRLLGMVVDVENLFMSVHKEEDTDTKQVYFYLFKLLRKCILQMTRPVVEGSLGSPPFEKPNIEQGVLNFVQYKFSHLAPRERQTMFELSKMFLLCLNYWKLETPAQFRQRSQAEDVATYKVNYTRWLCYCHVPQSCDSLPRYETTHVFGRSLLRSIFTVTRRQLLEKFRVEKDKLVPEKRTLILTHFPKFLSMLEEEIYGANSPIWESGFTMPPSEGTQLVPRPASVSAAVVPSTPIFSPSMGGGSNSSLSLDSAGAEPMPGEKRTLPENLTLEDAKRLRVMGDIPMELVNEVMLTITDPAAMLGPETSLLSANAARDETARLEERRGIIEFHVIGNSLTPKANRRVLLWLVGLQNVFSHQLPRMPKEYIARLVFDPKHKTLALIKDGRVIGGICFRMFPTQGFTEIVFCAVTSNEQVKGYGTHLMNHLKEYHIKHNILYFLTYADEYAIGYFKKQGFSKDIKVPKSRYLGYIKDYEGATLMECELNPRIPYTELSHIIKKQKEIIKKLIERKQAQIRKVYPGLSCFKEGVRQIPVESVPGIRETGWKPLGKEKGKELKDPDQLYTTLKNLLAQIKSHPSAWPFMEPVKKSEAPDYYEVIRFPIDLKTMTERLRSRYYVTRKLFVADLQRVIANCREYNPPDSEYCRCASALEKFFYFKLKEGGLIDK
assayNotes: KAT2A acetyltransferase biochemical assay (RapidFire mass spectrometry, AcCoA to CoA)
condition: read-out: KAT2A Ki at 1 μM AcCoA, 5 μM H3 1-21 peptide, 0.5 nM KAT2A, 90-minute reaction
pKi: −log10 of the molar value.

Some solved entries appear below for comparison.
molecule: CN(C)S(=O)(=O)NC(=O)Cc1cccc(O[C@@H]2CC[C@@H](NC(=O)[C@@]3(F)CNC4(CCC4)C3)C2)c1-c1cccc(F)c1C1CCC1 (atropisomer, axis not shown) [Example I15]
testedTarget: KAT2A (Homo sapiens (Human), UniProt Q92830)
val: < 7.00
//
molecule: CC[C@](C)(C(=O)O)c1ccc(O[C@@H]2CC[C@@H](NC(=O)[C@]3(F)CNC4(CCC4)C3)C2)c(-c2cccc(F)c2C2CCC2)c1 (single isomer, unassigned) [Example A11]
testedTarget: KAT2A (Homo sapiens (Human), UniProt Q92830)
val: < 6.00

// next entry
Entry O=C(O)Cc1ccc(O[C@@H]2CC[C@@H](NC(=O)[C@]3(F)CNC4(CCC4)C3)C2)c(-c2cccc(F)c2C2CCC2)c1 (single isomer, unassigned) [Example A8] has what pKi? < 6.40

###

testedTarget: KAT2A (Homo sapiens (Human))
assayNotes: KAT2A acetyltransferase biochemical assay (RapidFire mass spectrometry, AcCoA to CoA)
condition: read-out: KAT2A Ki at 1 μM AcCoA, 5 μM H3 1-21 peptide, 0.5 nM KAT2A, 90-minute reaction
Criterion: Ki strictly under 30 nM. Met: true. Not met: false.

compound: O=C(O)c1nn(C2CC2)cc1-c1ccc(O[C@@H]2CC[C@@H](NC(=O)[C@@]3(F)CNC4(CCC4)C3)C2)c(-c2cccc(F)c2C2CCC2)c1 (single isomer, unassigned) [Example J12]
assignedLabel: true

I wonder whether O=C(Cc1ccc(O[C@@H]2CC[C@@H](NC(=O)[C@@]3(F)CNC4(CCC4)C3)C2)c(-c2cccc(F)c2C2CCC2)c1)NS(=O)(=O)C1CC1 (single isomer, unassigned) [Example C30] has Ki below 30 nM. Can you tell? false

I wonder whether CC1(C)CNCC(F)(C(=O)N[C@@H]2CC[C@@H](Oc3ccc(C(C)(C)C(=O)NS(=O)(=O)C4CC4)cc3-c3cccc(F)c3C3CCC3)C2)C1 (single isomer, unassigned) has Ki below 30 nM. Can you tell? true

I wonder whether CCc1c(F)cccc1-c1cc([C@@H](C)C(=O)NS(=O)(=O)C2(C)CC2)ccc1O[C@@H]1CC[C@@H](NC(=O)[C@@]2(F)CNC3(CCCC3)C2)C1 (single isomer, unassigned) [Example C86] has Ki below 30 nM. Can you tell? false

I wonder whether CN1CC(C)(C)C[C@H]1C(=O)N[C@@H]1CC[C@@H](Oc2cccc(C(=O)NS(C)(=O)=O)c2-c2cccc(F)c2C2CCC2)C1 (atropisomer, axis not shown) [Example I2] has Ki below 30 nM. Can you tell? false

I wonder whether Cn1cc(-c2ccc(O[C@@H]3CC[C@@H](NC(=O)[C@]4(F)CNC5(CCC5)C4)C3)c(-c3cccc(F)c3C3CCC3)c2)c(C(C)(C)C(=O)O)n1 (single isomer, unassigned) [Example J7] has Ki below 30 nM. Can you tell? true

I wonder whether CCN(C)S(=O)(=O)NC(=O)c1cccc(O[C@@H]2CC[C@@H](NC(=O)[C@@H]3CC(C)(C)CN3C)C2)c1-c1cccc(F)c1C1CCC1 (atropisomer, axis not shown) has Ki below 30 nM. Can you tell? false

I wonder whether CCc1c(F)cccc1-c1cc(CC(=O)NS(=O)(=O)C2(C)CC2)ccc1O[C@@H]1CC[C@@H](NC(=O)[C@@]2(F)CNCC(C)(C)C2)C1 (single isomer, unassigned) [Example C56] has Ki below 30 nM. Can you tell? false

I wonder whether CCS(=O)(=O)NC(=O)[C@H](C)c1ccc(O[C@@H]2CC[C@@H](NC(=O)[C@@]3(F)CNC4(CCC4)C3)C2)c(-c2cccc(F)c2C2CCC2)c1 (single isomer, unassigned) has Ki below 30 nM. Can you tell? true

I wonder whether CC(C)S(=O)(=O)NC(=O)C(C)(C)c1ccc(O[C@@H]2CC[C@@H](NC(=O)[C@@]3(F)CNC4(CCC4)C3)C2)c(-c2ccccc2C2CCC2)c1 (single isomer, unassigned) has Ki below 30 nM. Can you tell? true

I wonder whether CCc1ccccc1-c1cc(C(C)(C)C(=O)NS(=O)(=O)C(C)C)ccc1O[C@@H]1CC[C@@H](NC(=O)[C@@]2(F)CNC3(CCC3)C2)C1 has Ki below 30 nM. Can you tell? true

I wonder whether CC(C)(C(=O)NS(=O)(=O)C1(C)CC1)c1ccc(O[C@@H]2CC[C@@H](NC(=O)[C@@]3(F)CNC4(CCC4)C3)C2)c(-c2cccc(F)c2C2CC2)c1 (single isomer, unassigned) [Example C21] has Ki below 30 nM. Can you tell? true

I wonder whether CC(C)n1cc(-c2ccc(O[C@@H]3CC[C@@H](NC(=O)[C@@]4(F)CNC5(CCC5)C4)C3)c(-c3cccc(F)c3C3CCC3)c2)c(C(=O)O)n1 (single isomer, unassigned) [Example J15] has Ki below 30 nM. Can you tell? true

I wonder whether CC(C)(C(N)=O)c1ccc(O[C@@H]2CC[C@@H](NC(=O)[C@]3(F)CNC4(CCC4)C3)C2)c(-c2cccc(F)c2C2CCC2)c1 (single isomer, unassigned) has Ki below 30 nM. Can you tell? false

###

Recorded pKi values for a group of molecules are listed next.
testedTarget: KAT2A (Homo sapiens (Human), UniProt Q92830)
assayNotes: KAT2A acetyltransferase biochemical assay (RapidFire mass spectrometry, AcCoA to CoA)
condition: read-out: KAT2A Ki at 1 μM AcCoA, 5 μM H3 1-21 peptide, 0.5 nM KAT2A, 90-minute reaction
pKi: −log10 of the molar value.

molecule: CCS(=O)(=O)NC(=O)Cc1ccc(O[C@@H]2CC[C@@H](NC(=O)[C@@]3(F)CNC4(CCCC4)C3)C2)c(-c2ccccc2C(C)C)c1 (single isomer, unassigned) [Example C64]
pKi: < 7.00
--
molecule: CC(C)S(=O)(=O)NC(=O)C(C)(C)c1ccc(O[C@@H]2CC[C@@H](NC(=O)[C@]3(F)CNC4(CCC4)C3)C2)c(-c2ccccc2C2CCC2)c1 (single isomer, unassigned)
pKi: < 7.00
--
molecule: CC(C)S(=O)(=O)NC(=O)C(C)(C)c1ccc(O[C@@H]2CC[C@@H](NC(=O)[C@@]3(F)CNC4(CCCC4)C3)C2)c(-c2cccc(F)c2C2CCC2)c1 (single isomer, unassigned) [Example B23]
pKi: < 6.00

Kindly state the measured pKi obtained for CC1(C)CNC[C@](F)(C(=O)N[C@@H]2CC[C@@H](Oc3cccc(CC(=O)O)c3-c3cccc(F)c3C3CCC3)C2)C1 (atropisomer, axis not shown) with KAT2A (Homo sapiens (Human), UniProt Q92830). < 7.00

The reported numbers originate from patent US20250188030A1.
